# system tested: human B1R (Homo sapiens, UniProt P46663)
# Construct: expressed in transfected cells; host or cells: CHO K1 cells
# Sequence (P46663 whole entry): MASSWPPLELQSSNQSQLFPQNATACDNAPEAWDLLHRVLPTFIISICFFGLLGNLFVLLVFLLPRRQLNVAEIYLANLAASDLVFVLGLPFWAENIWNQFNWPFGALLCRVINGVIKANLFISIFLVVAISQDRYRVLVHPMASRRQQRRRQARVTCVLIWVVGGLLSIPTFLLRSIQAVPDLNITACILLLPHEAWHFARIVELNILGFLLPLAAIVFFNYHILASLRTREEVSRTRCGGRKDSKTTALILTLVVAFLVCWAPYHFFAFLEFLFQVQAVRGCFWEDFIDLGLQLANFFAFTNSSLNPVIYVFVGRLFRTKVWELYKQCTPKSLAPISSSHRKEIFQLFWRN
# test protocol: Functional investigation on the bradykinin receptor 1 (B1R), FLIPR Ca2+ assay, hB1R cells
# Type: cell-based
# condition: % inhibition human B1R at 10 μM; CHO K1 cells transfected with human B1R; agonist Lys-Des-Arg9 bradykinin at EC80; read-out: % Inh. (hum. B1R) 10 μM
The compounds listed here are annotated with their inhibition at 10 µM.
readout label: inhibition at 10 µM (%)

>>> numeric_result("COc1cc(C)c(S(=O)(=O)N2CCCC[C@H]2COCC(=O)N2CCC3(CC2)CCC(c2ccccc2)(N(C)C)CC3)c(C)c1 [Compound 2]")
100
>>> numeric_result("COc1cc(C)c(S(=O)(=O)N2CCCCC2COCC(=O)N2CCC3(CC2)CCC(c2ccccc2)(N2CCCC2)CC3)c(C)c1 (stereo not shown) [Compound 1]")
100
>>> numeric_result("COc1cc(C)c(S(=O)(=O)N2CCCCC2COCC(=O)N2CCC3(CC2)CCC(c2cccs2)(N(C)C)CC3)c(C)c1 (stereo not shown) [CC-11]")
100
>>> numeric_result("CN(C)C1(c2ccccc2)CCC2(CCN(C(=O)C[C@@H](NS(=O)(=O)c3ccc4ccccc4c3)c3ccccc3)CC2)CC1 [Compound 5]")
77
>>> numeric_result("Cc1cccc(Cl)c1S(=O)(=O)N1CCCC[C@H]1COCC(=O)N1CCC2(CC1)CCC(c1ccccc1)(N(C)C)CC2 [Compound 6]")
100
>>> numeric_result("Cc1cc(S(=O)(=O)N2CCCCC2CCC(=O)N2CCC3(CC2)CCC(c2cccc(F)c2)(N2CCCC2)CC3)c(C)cc1Cl (stereo not shown) [CC-07]")
99
>>> numeric_result("CN(C)C1(c2ccccc2)CCC2(CCN(C(=O)CC3CCCCN3S(=O)(=O)c3cccc(C(F)(F)F)c3)CC2)CC1 (stereo not shown) [Compound 9]")
92
>>> numeric_result("COc1cc(C)c(S(=O)(=O)N2CCCC[C@H]2COCC(=O)N2CCC3(CC2)CCC(c2cccc(F)c2)(N(C)C)CC3)c(C)c1 [Compound 11]")
100
>>> numeric_result("O=C(CC(NS(=O)(=O)c1ccc2ccccc2c1)c1ccccc1)N1CCC2(CC1)CCC(c1cccc(F)c1)(N1CCCC1)CC2 (stereo not shown) [CC-08]")
81
>>> numeric_result("COc1cc(C)c(S(=O)(=O)N2CCCC[C@H]2COCC(=O)N2CCC3(CC2)CCC(c2ccccc2)(N2CCC2)CC3)c(C)c1 [Compound 12]")
100
>>> numeric_result("COc1cc(C)c(S(=O)(=O)N2C=CNC(=O)[C@H]2CC(=O)N2CCC3(CC2)CCC(c2ccccc2)(N(C)C)CC3)c(C)c1 [Compound 10]")
100
>>> numeric_result("COc1cc(C)c(S(=O)(=O)N(CCOCC(=O)N2CCC3(CC2)CCC(c2cccc(F)c2)(N2CCCC2)CC3)C2CC2)c(C)c1 [CC-04]")
100
>>> numeric_result("COc1cc(C)c(S(=O)(=O)N(CCOCC(=O)N2CCC3(CC2)CCC(c2ccccc2)(N(C)C)CC3)C2CC2)c(C)c1 [Compound 3]")
100
>>> numeric_result("Cc1cc(S(=O)(=O)N2CCCCC2CCC(=O)N2CCC3(CC2)CCC(c2ccccc2)(N(C)C)CC3)c(C)cc1Cl (stereo not shown) [Compound 7]")
98
>>> numeric_result("Cc1cc(S(=O)(=O)N2CCCCC2CCC(=O)N2CCC3(CC2)CCC(c2cccs2)(N(C)C)CC3)c(C)cc1Cl (stereo not shown) [CC-14]")
99
>>> numeric_result("COc1cc(C)c(S(=O)(=O)N2c3ccccc3C[C@H]2COCC(=O)N2CCC3(CC2)CCC(c2ccccc2)(N(C)C)CC3)c(C)c1 [Compound 4]")
98
